The origin of these recorded values is patent US10174032B2.

# TGT: PIM-1 (Homo sapiens)
# Sequence (P11309 whole entry, species assumed): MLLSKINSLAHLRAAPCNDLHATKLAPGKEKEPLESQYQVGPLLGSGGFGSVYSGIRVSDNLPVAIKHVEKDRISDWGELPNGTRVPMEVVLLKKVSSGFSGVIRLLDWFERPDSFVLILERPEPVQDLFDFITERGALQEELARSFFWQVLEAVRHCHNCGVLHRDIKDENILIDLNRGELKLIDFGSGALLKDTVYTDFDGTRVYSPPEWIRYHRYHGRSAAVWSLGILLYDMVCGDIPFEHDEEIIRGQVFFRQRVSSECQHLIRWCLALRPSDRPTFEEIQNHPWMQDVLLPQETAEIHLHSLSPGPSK
# MEASUREMENT NOTES: Kinase inhibition assay, P-33 labelled ATP phosphate transfer, PIM-1
# Type: biochemical
# Source text: The assays determined the amount of radioactive phosphate transferred from P-33 labelled ATP to the substrate by the enzyme in the presence of various concentrations of the inhibitor test compounds. […] A SpectraMax Plus spectrophotometric plate reader (Molecular Devices, Sunnydale, Calif.) was used to measure the optical density signal for pAKT at 450 nm (OD450 nm). The pAKT OD450 nm readings were normalized by total protein amount in the cell lysates determined by standard methods. […]
ENDPOINT LABEL: IC50 (µM)

MOLECULE	RESULT UNITS	REPORTED
O=c1nc(N2CCOCC2)[nH]c2c1cnn2-c1ccc2c(c1)OCCO2 [Compound 27]	µM	1

---

# TGT: PI3K-beta (Homo sapiens, UniProt P42338)
# Sequence (P42338 whole entry, species assumed): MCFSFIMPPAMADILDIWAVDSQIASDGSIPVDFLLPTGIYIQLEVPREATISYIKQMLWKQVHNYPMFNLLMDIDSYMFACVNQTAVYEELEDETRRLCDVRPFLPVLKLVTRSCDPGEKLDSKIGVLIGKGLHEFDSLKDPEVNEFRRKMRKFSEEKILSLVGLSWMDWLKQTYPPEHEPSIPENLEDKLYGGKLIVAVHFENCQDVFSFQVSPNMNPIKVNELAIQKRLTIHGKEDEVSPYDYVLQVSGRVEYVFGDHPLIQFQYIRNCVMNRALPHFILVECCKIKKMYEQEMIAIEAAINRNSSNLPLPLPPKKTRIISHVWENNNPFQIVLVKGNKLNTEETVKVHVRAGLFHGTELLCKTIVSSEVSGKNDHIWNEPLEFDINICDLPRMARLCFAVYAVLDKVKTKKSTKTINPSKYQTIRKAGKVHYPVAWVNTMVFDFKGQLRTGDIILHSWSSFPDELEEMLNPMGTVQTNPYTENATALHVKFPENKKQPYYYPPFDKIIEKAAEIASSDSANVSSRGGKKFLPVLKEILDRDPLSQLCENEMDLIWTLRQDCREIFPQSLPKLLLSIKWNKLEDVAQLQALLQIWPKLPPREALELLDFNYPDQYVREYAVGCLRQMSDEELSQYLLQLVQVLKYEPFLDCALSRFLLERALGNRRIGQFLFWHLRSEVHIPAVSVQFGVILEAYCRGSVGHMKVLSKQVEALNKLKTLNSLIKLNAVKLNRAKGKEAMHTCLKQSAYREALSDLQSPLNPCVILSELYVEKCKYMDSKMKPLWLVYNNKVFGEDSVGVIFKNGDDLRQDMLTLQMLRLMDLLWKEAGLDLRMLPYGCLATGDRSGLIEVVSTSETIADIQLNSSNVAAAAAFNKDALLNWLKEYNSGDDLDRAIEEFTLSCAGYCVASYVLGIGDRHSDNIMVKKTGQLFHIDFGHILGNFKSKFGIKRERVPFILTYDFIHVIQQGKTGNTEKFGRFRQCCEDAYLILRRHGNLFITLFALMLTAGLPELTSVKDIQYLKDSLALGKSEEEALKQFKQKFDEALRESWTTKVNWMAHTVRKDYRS
# Sequence (P27986 whole entry partner, species assumed): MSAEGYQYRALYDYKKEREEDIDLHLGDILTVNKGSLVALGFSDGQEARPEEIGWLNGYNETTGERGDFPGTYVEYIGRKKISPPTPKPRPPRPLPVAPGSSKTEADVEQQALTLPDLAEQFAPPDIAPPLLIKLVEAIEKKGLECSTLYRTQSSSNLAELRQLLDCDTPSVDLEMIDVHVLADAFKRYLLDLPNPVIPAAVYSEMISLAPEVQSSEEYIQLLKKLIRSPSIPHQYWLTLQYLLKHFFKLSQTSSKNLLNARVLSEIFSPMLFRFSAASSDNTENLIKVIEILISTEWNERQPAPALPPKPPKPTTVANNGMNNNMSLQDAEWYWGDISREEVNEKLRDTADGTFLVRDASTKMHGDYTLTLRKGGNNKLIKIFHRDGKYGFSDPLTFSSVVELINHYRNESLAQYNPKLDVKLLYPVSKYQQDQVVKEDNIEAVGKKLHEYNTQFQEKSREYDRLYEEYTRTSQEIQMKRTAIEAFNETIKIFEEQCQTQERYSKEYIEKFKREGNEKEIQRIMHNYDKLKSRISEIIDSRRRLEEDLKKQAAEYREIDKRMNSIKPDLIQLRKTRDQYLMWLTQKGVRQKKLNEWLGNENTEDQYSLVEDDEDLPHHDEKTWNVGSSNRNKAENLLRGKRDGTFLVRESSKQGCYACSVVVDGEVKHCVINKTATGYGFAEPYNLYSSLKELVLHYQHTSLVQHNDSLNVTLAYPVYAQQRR
# MEASUREMENT NOTES: Kinase inhibition assay, P-33 labelled ATP phosphate transfer, PI3K-beta
# Assay type: biochemical
# CONDITION SET: read-out: PI3K-beta(% Inh at 10 μM)
ENDPOINT LABEL: inhibition at 10 µM (%)

ITEM SMILES	RESULT UNITS	REPORTED
O=c1nc(N2CCOCC2)[nH]c2c1cnn2CCO	%	14
CCOC(=O)Cn1ncc2c(=O)nc(N3CCOCC3)[nH]c21	%	22
O=c1nc(N2CCOCC2)[nH]c2c1cnn2-c1ccccn1	%	4.7
O=c1nc(N2CCOCC2)[nH]c2c1cnn2C1CCCCC1	%	9.2
O=c1nc(N2CCOCC2)[nH]c2c1cnn2-c1ccc2c(c1)OCCO2	%	12
O=c1nc(N2CCOCC2)[nH]c2c1cnn2Cc1ccccc1	%	14

---

# TGT: mTOR (Homo sapiens, UniProt P42345)
# MEASUREMENT NOTES: Kinase inhibition assay, P-33 labelled ATP phosphate transfer, mTOR
# Assay type: biochemical
# CONDITION SET: read-out: mTOR(% Inh at 300 nM)

MOLECULE	TGT	inhibition at 0.3 µM / %
Cc1nc2c(=O)nc(N3CCOCC3)[nH]c2n1-c1ccc(F)cc1 [Compound 30]	mTOR (Homo sapiens, UniProt P42345)	0
Cc1nc2c(=O)nc(N3CCOCC3)[nH]c2n1-c1ccc2[nH]ccc2c1 [Compound 31]	mTOR (Homo sapiens, UniProt P42345)	0
COc1ccc(C#Cc2csc3c(=O)nc(N4CCOCC4)oc23)cc1 [Compound 20]	mTOR (Homo sapiens, UniProt P42345)	0
O=c1nc(N2CCOCC2)[nH]c2c1cnn2-c1ccccc1 [Compound 22]	mTOR (Homo sapiens, UniProt P42345)	42
Nc1ccc(-c2csc3c(=O)nc(N4CCOCC4)oc23)cc1 [Compound 17]	mTOR (Homo sapiens, UniProt P42345)	0
O=c1nc(N2CCOCC2)oc2c(-c3ccoc3)csc12 [Compound 19]	mTOR (Homo sapiens, UniProt P42345)	3
Cc1nc2c(=O)nc(N3CCOCC3)[nH]c2n1Cc1ccccc1 [Compound 29]	mTOR (Homo sapiens, UniProt P42345)	0
O=c1nc(N2CCOCC2)oc2c(-c3cccnc3)csc12 [Compound 18]	mTOR (Homo sapiens, UniProt P42345)	0
Cc1nc2c(=O)nc(N3CCOCC3)[nH]c2n1-c1ccccc1 [Compound 11]	mTOR (Homo sapiens, UniProt P42345)	0
Cc1ccc(-n2c(C)nc3c(=O)nc(N4CCOCC4)[nH]c32)cc1 [Compound 32]	mTOR (Homo sapiens, UniProt P42345)	0
O=C(NCCN1CCOCC1)c1cccc(-c2csc3c(=O)nc(N4CCOCC4)oc23)c1 [Compound 16]	mTOR (Homo sapiens, UniProt P42345)	0
O=c1nc(N2CCOCC2)oc2c(-c3ccccc3)csc12 [Compound 3]	mTOR (Homo sapiens, UniProt P42345)	4
COc1ccc(-c2csc3c(=O)nc(N4CCOCC4)oc23)cc1 [Compound 14]	mTOR (Homo sapiens, UniProt P42345)	0
